Property: pIC50; scope: individual compounds
Test system: hepatocellular carcinoma (HepG2) cells
Test: Antiproliferative MTT assay, HepG2
Format: cell-based, human
Conditions: Homo sapiens, HepG2, 72 h, 72 h incubation, MTT; mean ± SD
pIC50: −log10 of the molar value.

COMPOUND: OC(Cn1cc(Cn2ccc3ccccc32)nn1)c1ccccc1 (stereo not drawn) [Compound 26b]
pIC50: < 4.00

COMPOUND: OCC(c1ccccc1)n1cc(Cn2cnc3ccccc32)nn1 (stereo not drawn) [Compound 31a]
pIC50: < 4.00

COMPOUND: OCC(c1ccc(Cl)cc1)n1cc(Cn2cnc3c(Cl)nccc32)nn1 (stereo not drawn) [Compound 48a]
pIC50: < 4.00

---

System: colorectal carcinoma (HT-29) cells
Assay: Antiproliferative MTT assay, HT-29
Type: cell-based, human
Details: Homo sapiens, HT-29, 72 h, 72 h incubation, MTT; mean ± SD
Property: IC50; scope: individual compounds

COMPOUND: OCC(c1ccc(F)cc1)n1cc(Cn2cnc3c(Cl)nccc32)nn1 (centres unmarked) [Compound 47a]
SYSTEM_NAME: colorectal carcinoma (HT-29) cells
OPERATOR_SYMBOL: >
IC50, µM: 100
--
COMPOUND: OCC(c1ccc(F)cc1)n1cc(Cn2cnc3ccccc32)nn1 (centres unmarked) [Compound 32a]
SYSTEM_NAME: colorectal carcinoma (HT-29) cells
OPERATOR_SYMBOL: >
IC50, µM: 100
--
COMPOUND: OCC(c1ccccc1)n1cc(Cn2ccc3ccccc32)nn1 (centres unmarked) [Compound 26a]
SYSTEM_NAME: colorectal carcinoma (HT-29) cells
OPERATOR_SYMBOL: >
IC50, µM: 100
--
COMPOUND: O[C@H](Cn1cc(Cn2cnc3c(Cl)ncnc32)nn1)c1ccc(Cl)cc1 [Compound (S)-38b]
SYSTEM_NAME: colorectal carcinoma (HT-29) cells
OPERATOR_SYMBOL: =
IC50, µM: 47
--
COMPOUND: OCC(c1ccc(Cl)cc1)n1cc(Cn2ccc3c(Cl)ncnc32)nn1 (centres unmarked) [Compound 43a]
SYSTEM_NAME: colorectal carcinoma (HT-29) cells
OPERATOR_SYMBOL: =
IC50, µM: 33
--
COMPOUND: OCC(c1ccc(Br)cc1)n1cc(Cn2cnc3ccccc32)nn1 (centres unmarked) [Compound 34a]
SYSTEM_NAME: colorectal carcinoma (HT-29) cells
OPERATOR_SYMBOL: =
IC50, µM: 39
--
COMPOUND: OC(Cn1cc(Cn2ccc3c(Cl)ncnc32)nn1)c1ccc(F)cc1 (centres unmarked) [Compound 42b]
SYSTEM_NAME: colorectal carcinoma (HT-29) cells
OPERATOR_SYMBOL: =
IC50, µM: 49
--
COMPOUND: OCC(c1ccc(Br)cc1)n1cc(Cn2ccc3ccccc32)nn1 (centres unmarked) [Compound 29a]
SYSTEM_NAME: colorectal carcinoma (HT-29) cells
OPERATOR_SYMBOL: =
IC50, µM: 34
--
COMPOUND: OC(Cn1cc(Cn2cnc3c(Cl)ncnc32)nn1)c1ccc(F)cc1 (centres unmarked) [Compound 37b]
SYSTEM_NAME: colorectal carcinoma (HT-29) cells
OPERATOR_SYMBOL: =
IC50, µM: 46
--
COMPOUND: OCC(c1ccc(C(F)(F)F)cc1)n1cc(Cn2ccc3ccccc32)nn1 (centres unmarked) [Compound 30a]
SYSTEM_NAME: colorectal carcinoma (HT-29) cells
OPERATOR_SYMBOL: =
IC50, µM: 28
--
COMPOUND: OCC(c1ccc(Br)cc1)n1cc(Cn2cnc3c(Cl)nccc32)nn1 (centres unmarked) [Compound 49a]
SYSTEM_NAME: colorectal carcinoma (HT-29) cells
OPERATOR_SYMBOL: =
IC50, µM: 77
--
COMPOUND: OCC(c1ccccc1)n1cc(Cn2cnc3ccccc32)nn1 (centres unmarked) [Compound 31a]
SYSTEM_NAME: colorectal carcinoma (HT-29) cells
OPERATOR_SYMBOL: >
IC50, µM: 100
--
COMPOUND: OC(Cn1cc(Cn2cnc3c(Cl)nccc32)nn1)c1ccccc1 (centres unmarked) [Compound 46b]
SYSTEM_NAME: colorectal carcinoma (HT-29) cells
OPERATOR_SYMBOL: >
IC50, µM: 100
--
COMPOUND: OC(Cn1cc(Cn2ccc3ccccc32)nn1)c1ccccc1 (centres unmarked) [Compound 26b]
SYSTEM_NAME: colorectal carcinoma (HT-29) cells
OPERATOR_SYMBOL: >
IC50, µM: 100
